System: NCI/ADR-RES
Assay: NCI tumour cell line growth inhibition, 48 h
Activity calls are given as the source filed them. Rule as the data show it: active = GI50 up to about 1.1 µM and inactive = higher.
The reply should name one outcome from y = active, n = inactive

Challenge: For this compound, state the assay outcome: SC1=C2CCCCCC2=NC2(CCCCCC2)S1
Response given: n

Challenge: Okay, and CCOc1cc(C2CC(c3ccc(NS(=O)(=O)c4cc([N+](=O)[O-])ccc4C)cc3)=NN2)ccc1O (stereo not given) ?
Response given: n

Challenge: Okay, and COC1CC(OC2CCC3(C)C(=CCC4C3C(OC(C)=O)C(OC(=O)CC(C)C)C3(C)C(C(C)=O)CCC43O)C2)OC(C)C1OC1CC(OC)C(OC2CC(OC)C(OC3OC(C)C(OC4OC(CO)C(O)C(O)C4O)C(OC)C3O)C(C)O2)C(C)O1 (stereo not given) ?
Response given: n

Challenge: Okay, and COc1ccc(CSC2=C(C#N)C(=O)NC3(CCCCC3)S2)cc1 ?
Response given: n

Challenge: Okay, and Cc1nc2ccc(F)cc2c2c1CCN2c1ccccc1 ?
Response given: n

====

System: HOP-62
Assay: NCI tumour cell line growth inhibition, 48 h
Active and inactive are the calls of the source. No stated cut-off is given here; in the data, active = GI50 up to about 1.1 µM and inactive = higher.
The reply should name one outcome from active, inactive

For orientation, consider the following solved cases.
[
  {
    "MOLECULE": "COC(=O)C1Cc2cc3c(cc2C1)CCC3",
    "QUALITATIVE LABEL": "inactive"
  },
  {
    "MOLECULE": "Nc1ccn(C2CC(O)C(COP(=O)(S)OC3CC(n4ccc(N)nc4=O)OC3CO)O2)c(=O)n1 (stereo not given)",
    "QUALITATIVE LABEL": "inactive"
  }
]

Challenge: For this molecule, state the assay outcome: O=c1cc(-c2ccccc2)nc2[nH]ccn12
Response given: inactive

Challenge: Okay, and COc1cc(-c2cc(-c3ccccc3)nc(-c3c(OC)ccc4c(C)cc(=O)oc34)c2)cc(OC)c1OC ?
Response given: inactive

Challenge: Okay, and CCn1c(=O)c2c3cc(OC(C)=O)ccc3oc2c2ccc(OC(C)=O)cc21 ?
Response given: inactive

Challenge: Okay, and COc1cc(OC)c(OC)cc1/C=C\c1ccnc2ccccc12 ?
Response given: active

Challenge: Okay, and CCC(CC)C(=O)OC[n+]1ccc(-c2c(COC(=O)NC(C)C)c(COC(=O)NC(C)C)c3n2CCC3)cc1 ?
Response given: inactive

====

System: SF-295
Test: NCI tumour cell line growth inhibition, 48 h
Activity calls are given as the source filed them. Rule as the data show it: active = GI50 up to about 1.1 µM and inactive = higher.
In this section we review reported GI50 values for a set of compounds.

[
  {
    "COMPOUND": "COc1cc(C2c3cc4c(cc3OC(Nc3ccccc3)C2C)OCO4)cc(OC)c1OC (stereo unspecified)",
    "GI50": "0.333 µM (active)"
  },
  {
    "COMPOUND": "O=C(O)CCN1C(=S)CSC1=S",
    "GI50": "> 100 µM (inactive)"
  },
  {
    "COMPOUND": "FC(F)(F)c1nc2ccc3[nH]c4c(-c5ccccc5)nccc4c3c2[nH]1",
    "GI50": "> 100 µM (inactive)"
  },
  {
    "COMPOUND": "CC(C)[C@@H]1C=C(c2ccccc2)c2ccccc2C1C(C#N)(C#N)C(C)C (stereo partly specified)",
    "GI50": "> 100 µM (inactive)"
  }
]

Challenge: For the compound shown here, COc1ccccc1CC(C)N (stereo unspecified) , give the reported GI50.
Response given: > 100 µM (inactive)

Challenge: Okay, and C1CCNCC1.Oc1ncnc2[nH]cc(CN3CCCCC3)c12 ?
Response given: > 100 µM (inactive)

Challenge: Okay, and O=CN1CCN(c2ccc3ccc(O)nc3n2)CC1 ?
Response given: > 100 µM (inactive)

Challenge: Okay, and C/C(=N\NC(=O)c1ccncc1)c1ccc2ccccc2c1O ?
Response given: 1.77 µM (inactive)

Challenge: Okay, and O=C1c2cc(O)c(O)cc2O[C@H](c2ccc(O)c(O)c2)[C@H]1O ?
Response given: > 100 µM (inactive)

Challenge: Okay, and Cc1cn([C@H]2[C@@H](CO)C[C@H]2O)c(=O)[nH]c1=O ?
Response given: > 100 µM (inactive)

Challenge: Okay, and Cc1ccc(S(=O)(=O)N/N=C\c2c3ccccc3[n+](C)c3ccccc23)cc1 ?
Response given: 13.8 µM (inactive)

====

System: HCT-116
Test: NCI tumour cell line growth inhibition, 48 h
Active and inactive are the calls of the source. No stated cut-off is given here; in the data, active = GI50 up to about 1.1 µM and inactive = higher.
MEASURE: GI50

[
  {
    "COMPOUND": "CSc1nc2cc(S(=O)(=O)N3CCCCC3)ccc2s1",
    "MEASURE": "GI50",
    "RECORDED VALUE": "> 100 µM (inactive)"
  },
  {
    "COMPOUND": "O=C1c2cc(O)c(O)cc2O[C@H](c2ccc(O)c(O)c2)[C@H]1O",
    "MEASURE": "GI50",
    "RECORDED VALUE": "> 100 µM (inactive)"
  },
  {
    "COMPOUND": "O=S(=O)(O)C(CO)c1ccccc1.O=S(=O)(O)Cc1ccccc1 (stereo unspecified)",
    "MEASURE": "GI50",
    "RECORDED VALUE": "> 100 µM (inactive)"
  }
]

Challenge: For the compound shown here, COC(=O)/C=C/c1ccccc1N=[S@](C)(=O)c1ccc(C)cc1 , give the reported GI50.
Response given: 15.3 µM (inactive)

Challenge: Okay, and O=C1/C(=N\O)c2ccccc2S1(=O)=O ?
Response given: > 100 µM (inactive)

Challenge: Okay, and CN(NC(=O)/C(=C/c1ccc(Cl)cc1)NC(=O)c1ccccc1)c1cn[nH]c(=O)c1Cl ?
Response given: > 100 µM (inactive)

====

In this section we review reported GI50 values for a set of compounds.
Test system: 786-0
Test: NCI tumour cell line growth inhibition, 48 h
Calls of active or inactive are those of the source. No stated cut-off is given here; in the data, active = GI50 up to about 1.1 µM and inactive = higher.

Consider the worked cases shown below.
[
  {
    "COMPOUND": "Cc1nc2ccc(S(=O)(=O)NS(=O)(=O)c3ccc(-c4ccccc4)cc3)cc2c(=O)n1NS(=O)(=O)c1ccc(-c2ccccc2)cc1",
    "SYSTEM NAME": "786-0",
    "GI50": "> 100 µM (inactive)"
  },
  {
    "COMPOUND": "C[C@H](NC(=O)C(Cc1ccccc1)(Cc1ccc(O)cn1)NC(=O)c1ccccc1)c1ccccc1 (stereo not given in full)",
    "SYSTEM NAME": "786-0",
    "GI50": "16.7 µM (inactive)"
  },
  {
    "COMPOUND": "COc1cccc2cc(C)c(C(=O)c3ccccc3)nc12",
    "SYSTEM NAME": "786-0",
    "GI50": "> 100 µM (inactive)"
  }
]

Challenge: For the compound shown here, CN1CN(C2OC(CO)C(O)C2O)c2nc(N)[nH]c(=O)c21 (stereo not given) , give the reported GI50.
Response given: > 100 µM (inactive)

Challenge: Okay, and O/N=C1\Nc2ccccc2OCc2cc(Br)c(Br)cc2COc2ccccc2N\C1=N/O ?
Response given: 10 µM (inactive)

====

System: SN12C
Assay: NCI tumour cell line growth inhibition, 48 h
Active and inactive are the calls of the source. Cut-off read from the data, not from the text of the source: active = GI50 up to about 1.1 µM and inactive = higher.
The reply should name one outcome from yes (active), no (inactive)

For orientation, consider the following solved cases.
[
  {
    "STRUCTURE NOTATION": "O=C(OCc1ccccc1)N(CCCCN(CCCNC(=O)C(F)(F)F)C(=O)OCc1ccccc1)CCCNC(=O)C(F)(F)F",
    "QUALITATIVE LABEL": "no"
  },
  {
    "STRUCTURE NOTATION": "O=C(NCCCOC(=O)CCCCCCCCC(=O)OCCCNC(=O)NC(=O)c1c[nH]c(=O)[nH]c1=O)NC(=O)c1c[nH]c(=O)[nH]c1=O",
    "QUALITATIVE LABEL": "no"
  },
  {
    "STRUCTURE NOTATION": "N=C(N)SCCc1ccncc1",
    "QUALITATIVE LABEL": "no"
  },
  {
    "STRUCTURE NOTATION": "O=C(/C(=C\\c1ccc(Cl)cc1)c1ccccc1)c1ccccc1",
    "QUALITATIVE LABEL": "no"
  },
  {
    "STRUCTURE NOTATION": "NCCCCN(CCCN)C(=O)c1ccccc1",
    "QUALITATIVE LABEL": "no"
  },
  {
    "STRUCTURE NOTATION": "Cc1cc(C)c(C(=O)c2nnc3ccccc3c2N)c(C)c1",
    "QUALITATIVE LABEL": "no"
  },
  {
    "STRUCTURE NOTATION": "COC1(OC)C[C@H](C)[C@@]23O[C@]24C2=CC(=O)C=CC2=N[C@H]3C#C/C=C\\C#C[C@]14O",
    "QUALITATIVE LABEL": "yes"
  },
  {
    "STRUCTURE NOTATION": "CC1(C)OCN(c2ccc(N3CCOCC3)cc2)Cn2c1nc1ccccc12",
    "QUALITATIVE LABEL": "no"
  },
  {
    "STRUCTURE NOTATION": "Cc1cc2nc3ccccc3n2c2nc(N)ccc12",
    "QUALITATIVE LABEL": "no"
  }
]

# evaluate next
Challenge: For this compound, state the assay outcome: O=C(O)CSc1nc2ccccc2[nH]1
Response given: no
